- system_name: CDK6/cyclin D1 (Homo sapiens)
- Sequence (P24385 whole entry): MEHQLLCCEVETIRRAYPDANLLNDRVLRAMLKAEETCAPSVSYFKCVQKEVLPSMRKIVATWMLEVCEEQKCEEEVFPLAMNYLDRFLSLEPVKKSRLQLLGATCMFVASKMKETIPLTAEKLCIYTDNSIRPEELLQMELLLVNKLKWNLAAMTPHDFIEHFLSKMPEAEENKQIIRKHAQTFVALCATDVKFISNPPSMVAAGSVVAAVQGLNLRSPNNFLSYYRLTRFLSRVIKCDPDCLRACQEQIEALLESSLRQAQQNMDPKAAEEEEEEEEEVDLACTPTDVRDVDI
- Sequence (Q00534 whole entry): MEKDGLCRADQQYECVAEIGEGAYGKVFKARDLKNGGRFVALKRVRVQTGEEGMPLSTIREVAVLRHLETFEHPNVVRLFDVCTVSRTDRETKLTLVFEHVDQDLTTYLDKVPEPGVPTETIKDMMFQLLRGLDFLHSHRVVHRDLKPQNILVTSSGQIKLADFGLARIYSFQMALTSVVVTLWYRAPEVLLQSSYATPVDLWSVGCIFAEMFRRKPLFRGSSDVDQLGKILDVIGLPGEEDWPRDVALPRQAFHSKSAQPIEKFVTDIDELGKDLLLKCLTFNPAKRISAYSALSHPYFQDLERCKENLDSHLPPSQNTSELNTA
- assay_details: Inhibition of CDK6/CyclinD1 (unknown origin) by ADP-Glo assay
Listed here are compounds together with their documented pIC50.
Keep it numeric: pIC50 is minus log10 of the concentration in mol/L.

>>> test_result("COc1cc(O)c2c(=O)cc(-c3ccc(N4CCN(C)CC4)cc3)oc2c1N1CCNCC1")
5.65

Find the measured pIC50: item COc1cc(O)c2c(=O)cc(-c3ccc(N4CCN(C)CC4)cc3)oc2c1C1=CCN(C)CC1 , target or system CDK6/cyclin D1 (Homo sapiens).
6.23

---

- system_name: CDK9/cyclin T1 (Homo sapiens) (UniProt O60563+P50750)
- assay_details: Inhibition of CDK9/CyclinT1 (unknown origin) at 100 nM by ADP-Glo assay relative to control
- Format: protein-complex assay
outcome_measure: inhibition (%)
Report the figure in % without appending any unit label.

>>> test_result("COc1cc(O)c2c(=O)cc(-c3ccc(N4CCN(C)CC4)cc3)oc2c1N1CCN(C)CC1")
75.8

Look up inhibition for this compound: COc1cc(O)c2c(=O)cc(-c3ccc(N4CCN(C)CC4)cc3)oc2c1N1CCNCC1
75

Look up inhibition for this compound: COc1cc(O)c2c(=O)cc(-c3ccc(N4CCN(C)CC4)cc3)oc2c1[C@H]1CCN(C)[C@@H]1CO
1.4

Look up inhibition for this compound: COc1cc(O)c2c(=O)cc(-c3ccc(N4CCC(N5CCOCC5)CC4)cc3)oc2c1N1CCNCC1
78

Look up inhibition for this compound: COc1cc(O)c2c(=O)cc(-c3ccc(N4CCNCC4)cc3)oc2c1C1=CCN(C)CC1
98.6

Look up inhibition for this compound: COc1cc(O)c2c(=O)cc(-c3ccc(N4CCN(C)CC4)cc3)oc2c1N1CCCCC1
47.5

Look up inhibition for this compound: COc1cc(O)c2c(=O)cc(-c3ccc(N4CCOCC4)cc3)oc2c1N1CCNCC1
74.4

Look up inhibition for this compound: COc1cc(O)c2c(=O)cc(-c3ccc(N4CCN(C)CC4)cc3)oc2c1Oc1c(C)n[nH]c1C
75.8

Look up inhibition for this compound: COc1cc(O)c2c(=O)cc(-c3ccc(N4CCN(C)CC4)cc3)oc2c1N1CCC(N2CCOCC2)CC1
70

Look up inhibition for this compound: COc1cc(O)c2c(=O)cc(-c3ccc(N4CCN(C)CC4)cc3)oc2c1N1CCCC1
17.6

Look up inhibition for this compound: COc1cc(O)c2c(=O)cc(-c3ccc(N4CCCNCC4)cc3)oc2c1C1=CCN(C)CC1
99

---

- system_name: CDK9/cyclin T1 (Homo sapiens)
- Sequence (O60563 whole entry): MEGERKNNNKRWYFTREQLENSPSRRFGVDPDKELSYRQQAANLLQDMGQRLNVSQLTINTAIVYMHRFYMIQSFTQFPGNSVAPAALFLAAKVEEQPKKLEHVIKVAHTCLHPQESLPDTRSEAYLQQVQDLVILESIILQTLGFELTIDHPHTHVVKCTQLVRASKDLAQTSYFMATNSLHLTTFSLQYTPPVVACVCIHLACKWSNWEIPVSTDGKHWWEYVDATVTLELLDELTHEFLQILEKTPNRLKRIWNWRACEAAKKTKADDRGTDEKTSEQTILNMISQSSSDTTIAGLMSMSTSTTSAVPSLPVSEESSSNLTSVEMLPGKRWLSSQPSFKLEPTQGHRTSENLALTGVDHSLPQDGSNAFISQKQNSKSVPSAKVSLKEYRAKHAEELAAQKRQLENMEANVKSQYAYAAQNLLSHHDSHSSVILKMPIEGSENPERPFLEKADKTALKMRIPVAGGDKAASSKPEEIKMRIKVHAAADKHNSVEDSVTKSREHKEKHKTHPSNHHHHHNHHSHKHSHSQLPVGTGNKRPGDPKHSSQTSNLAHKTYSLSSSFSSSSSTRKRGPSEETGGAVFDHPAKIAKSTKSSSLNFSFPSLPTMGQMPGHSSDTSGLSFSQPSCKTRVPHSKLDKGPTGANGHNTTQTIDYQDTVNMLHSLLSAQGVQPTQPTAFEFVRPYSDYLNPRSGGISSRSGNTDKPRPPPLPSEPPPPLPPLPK
- Sequence (P50750 whole entry): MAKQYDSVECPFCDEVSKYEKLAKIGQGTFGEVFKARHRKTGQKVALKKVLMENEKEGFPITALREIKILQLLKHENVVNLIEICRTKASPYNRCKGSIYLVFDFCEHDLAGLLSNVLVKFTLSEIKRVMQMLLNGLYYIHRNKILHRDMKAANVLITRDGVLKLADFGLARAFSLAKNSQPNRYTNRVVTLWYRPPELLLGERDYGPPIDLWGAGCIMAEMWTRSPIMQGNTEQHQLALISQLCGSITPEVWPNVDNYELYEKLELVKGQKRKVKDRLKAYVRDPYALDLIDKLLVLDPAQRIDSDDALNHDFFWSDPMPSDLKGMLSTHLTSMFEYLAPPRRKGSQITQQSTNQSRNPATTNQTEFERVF
- assay_details: Inhibition of CDK9/CyclinT1 (unknown origin) by ADP-Glo assay
outcome_measure: pIC50
Keep it numeric: pIC50 is minus log10 of the concentration in mol/L.

Look up pIC50 for this compound: COc1cc(O)c2c(=O)cc(-c3ccc(N4CCN(C)CC4)cc3)oc2c1C1=CCN(C)CC1
8.17

---

Listed here are molecules together with their documented inhibition.
- system_name: CDK9/cyclin T1 (Homo sapiens) (UniProt O60563+P50750)
- assay_details: Inhibition of CDK9/CyclinT1 (unknown origin) at 100 nM by ADP-Glo assay relative to control
- Assay type: protein-complex assay
Report the figure in % without appending any unit label.

Previously resolved entries follow.
>>> test_result("COc1cc(O)c2c(=O)cc(-c3ccc(N4CCN(C)CC4)cc3)oc2c1")
5.1
>>> test_result("COc1cc(O)c2c(=O)cc(-c3ccc(N4CCN(C)CC4)cc3)oc2c1N1CCOCC1")
44.4
>>> test_result("COc1cc(O)c2c(=O)cc(-c3ccc(N4CCC(N5CCOCC5)CC4)cc3)oc2c1C1=CCN(C)CC1")
90.9

Look up inhibition for this molecule: COc1cc(O)c2c(=O)cc(-c3ccc(N4CCCNCC4)cc3)oc2c1N1CCNCC1
78

Look up inhibition for this molecule: COc1cc(O)c2c(=O)cc(-c3ccc(N4CCN(C)CC4)cc3)oc2c1C1=CCN(C)CC1
98.9

---

- system_name: CDK9/cyclin T1 (Homo sapiens) (UniProt O60563+P50750)
- assay_details: Inhibition of CDK9/CyclinT1 (unknown origin) at 100 nM by ADP-Glo assay relative to control
- Format: protein-complex assay
Listed here are compounds together with their documented inhibition.

Previously resolved entries follow.
>>> test_result("COc1cc(O)c2c(=O)cc(-c3ccc(N4CCNCC4)cc3)oc2c1N1CCNCC1")
"70.8%"
>>> test_result("COc1cc(O)c2c(=O)cc(-c3ccc(N4CCCC4)cc3)oc2c1N1CCNCC1")
"79.6%"

Attention now shifts to the item below.
Find the measured inhibition: item COc1cc(O)c2c(=O)cc(-c3ccc(N4CCN(C)CC4)cc3)oc2c1[C@H]1CCN(C)C[C@H]1O , target or system CDK9/cyclin T1 (Homo sapiens) (UniProt O60563+P50750).
64.9%
